What Ki was measured for each of the following?
- assayed-system: JAK1 (Homo sapiens (Human))
- Sequence (P23458 whole entry): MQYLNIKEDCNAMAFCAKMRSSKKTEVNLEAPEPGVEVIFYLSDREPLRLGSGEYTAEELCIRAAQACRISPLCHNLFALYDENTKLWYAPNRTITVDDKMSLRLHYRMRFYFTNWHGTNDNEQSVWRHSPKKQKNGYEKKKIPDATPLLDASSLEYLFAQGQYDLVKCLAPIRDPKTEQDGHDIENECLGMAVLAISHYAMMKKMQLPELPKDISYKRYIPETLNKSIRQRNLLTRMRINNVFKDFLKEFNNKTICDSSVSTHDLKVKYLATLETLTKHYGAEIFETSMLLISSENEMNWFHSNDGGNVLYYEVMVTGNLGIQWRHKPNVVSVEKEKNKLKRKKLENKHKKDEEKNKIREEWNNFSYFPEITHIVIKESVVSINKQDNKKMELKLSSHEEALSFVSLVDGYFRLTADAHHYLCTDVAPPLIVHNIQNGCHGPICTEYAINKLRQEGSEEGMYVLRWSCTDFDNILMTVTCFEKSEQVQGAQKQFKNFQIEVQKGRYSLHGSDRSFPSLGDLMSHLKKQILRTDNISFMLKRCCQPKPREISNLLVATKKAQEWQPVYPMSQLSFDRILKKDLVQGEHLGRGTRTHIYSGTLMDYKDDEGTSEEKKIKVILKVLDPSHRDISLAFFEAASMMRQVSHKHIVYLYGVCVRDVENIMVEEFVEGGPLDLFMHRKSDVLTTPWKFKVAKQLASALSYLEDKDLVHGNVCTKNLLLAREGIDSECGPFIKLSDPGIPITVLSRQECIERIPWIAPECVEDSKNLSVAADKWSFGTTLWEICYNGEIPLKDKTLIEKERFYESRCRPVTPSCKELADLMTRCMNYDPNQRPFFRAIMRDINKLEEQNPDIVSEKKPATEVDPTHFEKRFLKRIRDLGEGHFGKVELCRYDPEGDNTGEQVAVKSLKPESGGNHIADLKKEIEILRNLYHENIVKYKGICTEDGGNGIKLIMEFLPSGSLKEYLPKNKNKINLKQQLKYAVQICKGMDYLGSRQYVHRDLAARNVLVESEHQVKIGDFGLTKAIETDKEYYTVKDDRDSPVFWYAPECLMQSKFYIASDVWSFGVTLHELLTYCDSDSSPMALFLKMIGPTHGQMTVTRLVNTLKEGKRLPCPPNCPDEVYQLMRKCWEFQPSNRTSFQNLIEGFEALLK
Give bare numbers, in nM.

Field: example entries. Status: answers known.
>>> measured_number("CCc1cc(O)c(F)cc1-c1ccc2c(-c3nc4c([nH]3)CN(C)C(C(=O)N3CC(C)(N(C)C)C3)C4)n[nH]c2c1 (stereo not drawn) [Example 8-9]")
0.05
>>> measured_number("CCCN1Cc2[nH]c(-c3n[nH]c4cc(-c5cc(F)c(O)cc5CC)ccc34)nc2C[C@H]1C(=O)N1CC(N(C)C)C1 [Example 4]")
0.06

We now examine a further compound.
Q. // query Ki value for entry CCc1cc(O)c(F)cc1-c1ccc2c(-c3nc4c([nH]3)CN(C)[C@H](C(=O)N3CC(N5CCCCC5)C3)C4)n[nH]c2c1 [Example 8-1]
A. 0.06

Sourced from patent US10196393B2
